Below are pIC50 values measured for Glycogen synthase kinase-3 alpha (Homo sapiens, UniProt P49840).
pIC50: −log10 of the molar value.
measure: pIC50

>>> df
                                   molecule  measure  reported_value
0  CCC1(c2cccc(-c3cc(C)nn3C)c2)C2=C(N=NC2)NC2=C1C(=O)NC(C)(C)C2 (centres undefined)    pIC50          > 7.00
1  C[C@@H]1CC(=O)C2=C(C1)NC1=C(CN=N1)C21CCOCC1    pIC50    6.00 to 7.00
2  CC[C@@H]1C[C@]2(CO1)C1=C(N=NC1)NC1=C2C(=O)CC(C)(C)C1    pIC50    6.00 to 7.00
3  Cc1nccc([C@H]2CC[C@@]3(CC2)C2=C(N=NC2)NC2=C3C(=O)CC(C)(C)C2)c1C    pIC50    6.00 to 7.00

----------
Record type: IC50 measurement. Applies to: Glycogen synthase kinase-3 beta (Homo sapiens)
measure: IC50

molecule	experimental system	measure	reported value
CC[C@@]1(c2cccc(-c3ccnc(O)c3)c2)C2=CN=NC2NC2=C1C(=O)CC(C)(C)C2 (some centres undefined) [US20250313563, Compound 943993]	Glycogen synthase kinase-3 beta (Homo sapiens)	IC50	> 5 µM
CC[C@@]1(c2cccc(C(F)(F)F)c2)C2=CN=NC2NC2=C1C(=O)C[C@]1(CCN(C)C1=O)C2 (some centres undefined) [US20250313563, Compound 950325]	Glycogen synthase kinase-3 beta (Homo sapiens)	IC50	> 5 µM
C[C@H]1CC[C@]2(C1)C1=C(N=NC1)NC1=C2C(=O)CC(C)(C)C1 [US20250313563, Compound 897751]	Glycogen synthase kinase-3 beta (Homo sapiens)	IC50	0.1 to 1 µM
CCC1(c2cccc(N3CCOc4ncccc43)c2)C2=CN=NC2NC2=C1C(=O)CC(C)(C)C2 (centres undefined) [US20250313563, Compound 918279]	Glycogen synthase kinase-3 beta (Homo sapiens)	IC50	< 0.1 µM

----------
# experimental system: Glycogen synthase kinase-3 beta (Homo sapiens, UniProt P49841)
# Sequence (P49841 whole entry): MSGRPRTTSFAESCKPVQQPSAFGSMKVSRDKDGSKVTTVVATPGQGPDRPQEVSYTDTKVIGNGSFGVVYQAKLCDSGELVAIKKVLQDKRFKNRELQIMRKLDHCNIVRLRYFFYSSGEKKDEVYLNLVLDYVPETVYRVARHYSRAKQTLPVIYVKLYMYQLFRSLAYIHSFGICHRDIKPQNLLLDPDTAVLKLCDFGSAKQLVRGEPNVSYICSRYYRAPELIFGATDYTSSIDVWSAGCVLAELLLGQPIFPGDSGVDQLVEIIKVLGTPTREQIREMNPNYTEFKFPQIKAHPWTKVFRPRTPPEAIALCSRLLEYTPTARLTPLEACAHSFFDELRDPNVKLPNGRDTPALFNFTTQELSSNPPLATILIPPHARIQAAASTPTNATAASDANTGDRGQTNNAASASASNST
pIC50: −log10 of the molar value.
measure: pIC50

>>> df
                                   molecule  reported_value
0  CC1(C)CC(=O)C2=C(C1)NC1=C(CN=N1)[C@@]21COC2(CN(C(=O)C3CCCC3)C2)C1          > 7.00
1   CC1(C)CC(=O)C2=C(C1)NC1=C(CN=N1)C21CNC1          < 5.30
2  CC[C@@]1(c2cccc(C(C)C)c2)C2=CN=NC2NC2=C1C(=O)CC(C)(C)C2 (stereo not given in full)          < 5.30
3  O=C1CC2(CCCC2)CC2=C1C1(CCOCC1)C1=C(N=NC1)N2    6.00 to 7.00
4  CC[C@@]1(c2cccc(-c3cc(C(F)(F)F)nn3C)c2)C2=CN=NC2NC2=C1C(=O)NC(C)(C)C2 (stereo not given in full)    5.30 to 6.00
